Molecular target: T1, IL10Rα/IL2Rγ receptor (human) (UniProt Q13651)
T1 sequence (looked up) 1: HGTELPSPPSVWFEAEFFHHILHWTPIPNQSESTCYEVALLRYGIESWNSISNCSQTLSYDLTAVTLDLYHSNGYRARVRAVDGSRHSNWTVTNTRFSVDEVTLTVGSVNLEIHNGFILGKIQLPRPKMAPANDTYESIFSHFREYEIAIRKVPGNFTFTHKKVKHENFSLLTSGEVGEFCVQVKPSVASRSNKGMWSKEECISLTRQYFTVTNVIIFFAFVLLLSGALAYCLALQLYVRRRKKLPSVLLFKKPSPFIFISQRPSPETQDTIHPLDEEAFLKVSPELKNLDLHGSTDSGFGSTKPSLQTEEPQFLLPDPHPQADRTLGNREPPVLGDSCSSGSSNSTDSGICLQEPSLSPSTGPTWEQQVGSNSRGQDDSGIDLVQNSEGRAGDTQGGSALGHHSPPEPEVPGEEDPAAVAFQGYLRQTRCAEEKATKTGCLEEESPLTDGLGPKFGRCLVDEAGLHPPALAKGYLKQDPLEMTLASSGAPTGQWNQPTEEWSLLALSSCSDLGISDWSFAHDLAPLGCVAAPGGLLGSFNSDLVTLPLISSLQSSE
T1 sequence (looked up) 2: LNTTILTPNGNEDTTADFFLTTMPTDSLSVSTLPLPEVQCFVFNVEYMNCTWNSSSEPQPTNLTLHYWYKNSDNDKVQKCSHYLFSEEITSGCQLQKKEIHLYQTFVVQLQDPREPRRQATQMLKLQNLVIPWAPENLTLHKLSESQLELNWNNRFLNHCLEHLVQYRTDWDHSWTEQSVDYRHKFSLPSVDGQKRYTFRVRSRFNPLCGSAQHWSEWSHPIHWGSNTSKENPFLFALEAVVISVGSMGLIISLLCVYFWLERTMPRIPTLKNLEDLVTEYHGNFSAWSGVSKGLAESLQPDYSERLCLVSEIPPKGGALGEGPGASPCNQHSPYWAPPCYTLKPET
Test: cell-based or functional assay
Quick reference: Granzyme A secretion, CD8 T cells, at 10 µM of the listed items.
outcomeMeasure: Granzyme A secretion, CD8 T cells, at 10 µM (pg/mL)

binder	unitsSymbol	reportedValue
hIL10Ra_VHH14 - hIL2Rg_VHH19, No linker, tag his (bispecific antibody, not shown: small tags and cut ends) QVQLQESGGGSVQAGGSLRLSCGASGYTYSSYCMGWFRQVPGKEREGVAVIDSDGSTSYADSVKGRFTISKDNGKNTLYLQMNSLKPEDTAMYYCAADLGHYRPPCGVLYLGMDYWGKGTQVTVSSQVQLQESGGGSVQAGGSLRLSCTASGFTFDDREMNWYRQAPGNECELVSTISSDGSTYYADSVKGRFTISQDNAKNTVYLQMDSVKPEDTAVYYCAADFMIAIQAPGAGCWGQGTQVTVSS	pg/mL	26000
hIL10Ra_VHH14 - hIL2Rg_VHH19, linker …, tag his (bispecific antibody, not shown: small tags and cut ends) QVQLQESGGGSVQAGGSLRLSCGASGYTYSSYCMGWFRQVPGKEREGVAVIDSDGSTSYADSVKGRFTISKDNGKNTLYLQMNSLKPEDTAMYYCAADLGHYRPPCGVLYLGMDYWGKGTQVTVSSGGSGGSGGSGQVQLQESGGGSVQAGGSLRLSCTASGFTFDDREMNWYRQAPGNECELVSTISSDGSTYYADSVKGRFTISQDNAKNTVYLQMDSVKPEDTAVYYCAADFMIAIQAPGAGCWGQGTQVTVSS	pg/mL	31500
hIL10Ra_VHH14 - hIL2Rg_VHH19, linker GGGS, tag his (bispecific antibody, not shown: small tags and cut ends) QVQLQESGGGSVQAGGSLRLSCGASGYTYSSYCMGWFRQVPGKEREGVAVIDSDGSTSYADSVKGRFTISKDNGKNTLYLQMNSLKPEDTAMYYCAADLGHYRPPCGVLYLGMDYWGKGTQVTVSSGGGSQVQLQESGGGSVQAGGSLRLSCTASGFTFDDREMNWYRQAPGNECELVSTISSDGSTYYADSVKGRFTISQDNAKNTVYLQMDSVKPEDTAVYYCAADFMIAIQAPGAGCWGQGTQVTVSS	pg/mL	26500
hIL10Ra_VHH14 - hIL2Rg_VHH19, linker GGSGGS, tag his (bispecific antibody, not shown: small tags and cut ends) QVQLQESGGGSVQAGGSLRLSCGASGYTYSSYCMGWFRQVPGKEREGVAVIDSDGSTSYADSVKGRFTISKDNGKNTLYLQMNSLKPEDTAMYYCAADLGHYRPPCGVLYLGMDYWGKGTQVTVSSGGSGGSQVQLQESGGGSVQAGGSLRLSCTASGFTFDDREMNWYRQAPGNECELVSTISSDGSTYYADSVKGRFTISQDNAKNTVYLQMDSVKPEDTAVYYCAADFMIAIQAPGAGCWGQGTQVTVSS	pg/mL	29400
